Molecular target: Neuronal acetylcholine receptor; alpha4/beta2 (Homo sapiens, UniProt P17787+P43681)
Sequence (P17787 whole entry): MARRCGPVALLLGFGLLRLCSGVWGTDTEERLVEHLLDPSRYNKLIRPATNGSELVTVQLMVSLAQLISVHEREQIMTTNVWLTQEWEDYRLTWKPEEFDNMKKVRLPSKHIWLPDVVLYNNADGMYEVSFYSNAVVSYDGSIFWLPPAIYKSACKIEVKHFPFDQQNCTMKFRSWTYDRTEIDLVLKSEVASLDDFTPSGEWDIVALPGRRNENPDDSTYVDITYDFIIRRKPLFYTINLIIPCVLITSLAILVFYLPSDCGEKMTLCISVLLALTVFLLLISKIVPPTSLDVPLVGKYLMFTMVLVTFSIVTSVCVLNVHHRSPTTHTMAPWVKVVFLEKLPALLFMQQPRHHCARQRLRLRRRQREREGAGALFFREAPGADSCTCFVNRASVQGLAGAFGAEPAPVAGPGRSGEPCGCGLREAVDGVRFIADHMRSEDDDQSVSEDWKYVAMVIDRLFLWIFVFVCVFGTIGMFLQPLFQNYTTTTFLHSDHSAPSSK
Sequence (P43681 whole entry): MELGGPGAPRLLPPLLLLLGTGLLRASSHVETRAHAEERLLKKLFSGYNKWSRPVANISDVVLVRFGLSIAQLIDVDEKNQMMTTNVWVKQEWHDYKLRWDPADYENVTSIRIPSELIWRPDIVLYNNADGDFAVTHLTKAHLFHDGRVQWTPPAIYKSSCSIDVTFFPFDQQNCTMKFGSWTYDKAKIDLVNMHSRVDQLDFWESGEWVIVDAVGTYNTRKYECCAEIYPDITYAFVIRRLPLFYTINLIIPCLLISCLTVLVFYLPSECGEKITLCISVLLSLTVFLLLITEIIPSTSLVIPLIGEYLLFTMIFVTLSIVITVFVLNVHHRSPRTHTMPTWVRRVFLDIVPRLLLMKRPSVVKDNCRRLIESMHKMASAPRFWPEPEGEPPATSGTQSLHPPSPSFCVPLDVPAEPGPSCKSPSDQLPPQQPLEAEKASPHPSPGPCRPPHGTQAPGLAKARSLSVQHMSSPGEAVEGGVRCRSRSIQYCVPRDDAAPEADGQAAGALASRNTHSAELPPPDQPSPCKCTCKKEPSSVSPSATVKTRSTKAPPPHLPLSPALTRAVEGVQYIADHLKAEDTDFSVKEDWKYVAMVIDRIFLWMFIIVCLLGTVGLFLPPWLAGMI
Assay: Displacement of [3H]cytisine from human alpha4beta2 nAChR
Assay type: protein-complex assay
pKi overview
Remember, pKi is on a log scale: it is -log10 of the molar concentration.

// recorded pKi for C[N+](C)(C)Cc1cn(Cc2cccc(O)c2)c2ccccc12 : 5.80

Would you kindly look at the next entry?
// recorded pKi for C[N+](C)(C)Cc1cn(Cc2ccc(O)cc2)c2ccccc12 : 6.22

---

Molecular target: Neuronal acetylcholine receptor subunit alpha-7 (Homo sapiens)
Test: Antagonist activity at human alpha7 nAChR expressed in rat GH3 cells assessed as (+/-)-epibatidine-induced Ca2+ influx
Measured parameter: IC50 (nM)
Write the answer as a number in nM, unit excluded.

Here are 6 molecules together with their reported answers.
// recorded IC50 for C[n+]1cccc(Cn2cc(C[N+](C)(C)C)c3ccccc32)c1 : 41300

// recorded IC50 for COc1ccc(Cn2cc(C[N+](C)(C)C)c3ccccc32)cc1 : 2000

// recorded IC50 for C[N+](C)(C)Cc1cn(Cc2cccc(O)c2)c2ccccc12 : 1000

// recorded IC50 for COc1ccc(Cn2cc(C[N+](C)(C)C)c3ccccc32)cc1OC : 2200

// recorded IC50 for C[N+](C)(C)Cc1cn(Cc2ccccc2)c2ccccc12 : 2300

// recorded IC50 for C[N+](C)(C)Cc1cn(Cc2ccc(O)cc2)c2ccccc12 : 2200

***
// recorded IC50 for C[N+](C)(C)Cc1cn(Cc2ccc([N+](C)(C)C)cc2)c2ccccc12 : 2700

// recorded IC50 for COc1ccc(Cn2cc(C[N+](C)(C)C)c3ccccc32)cc1O : 3400

// recorded IC50 for C[N+](C)(C)Cc1cn(Cc2ccc3c(c2)OCO3)c2ccccc12 : 1300

// recorded IC50 for COc1cc(Cn2cc(C[N+](C)(C)C)c3ccccc32)ccc1O : 2200

---

Target: Neuronal acetylcholine receptor subunit alpha-7 (Homo sapiens, UniProt P36544)
Sequence (P36544 whole entry): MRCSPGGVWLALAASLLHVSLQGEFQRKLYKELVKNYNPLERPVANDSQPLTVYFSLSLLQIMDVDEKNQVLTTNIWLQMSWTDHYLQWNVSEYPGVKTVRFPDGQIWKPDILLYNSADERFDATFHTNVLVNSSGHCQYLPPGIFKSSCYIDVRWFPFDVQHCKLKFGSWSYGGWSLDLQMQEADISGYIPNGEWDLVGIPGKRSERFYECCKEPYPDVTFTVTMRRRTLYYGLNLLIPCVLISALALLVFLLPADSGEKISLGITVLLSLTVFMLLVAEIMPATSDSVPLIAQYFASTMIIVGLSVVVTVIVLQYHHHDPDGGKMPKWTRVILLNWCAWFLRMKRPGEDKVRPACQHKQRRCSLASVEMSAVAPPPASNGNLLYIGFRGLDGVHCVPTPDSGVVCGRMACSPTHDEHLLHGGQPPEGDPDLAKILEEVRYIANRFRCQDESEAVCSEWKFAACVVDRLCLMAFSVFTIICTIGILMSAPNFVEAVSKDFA
Assay: Displacement of [3H]imipramine from human alpha7 nAChR
Measured parameter: Ki (µM)
Write the answer as a number in µM, unit excluded.

// recorded Ki for C[N+](C)(C)Cc1cn(Cc2cccc(O)c2)c2ccccc12 : 145

---

Organism: Homo sapiens
Assay: Selectivity ratio of IC50 for human alpha4beta2 nAChR to IC50 for human alpha7 nAChR
Ratio IC50 overview
// no unit, no text: just the number

// recorded Ratio IC50 for C[N+](C)(C)Cc1cn(Cc2ccc3c(c2)OCO3)c2ccccc12 : 3

// recorded Ratio IC50 for C[N+](C)(C)Cc1cn(Cc2ccc([N+](C)(C)C)cc2)c2ccccc12 : 7.4

***
// recorded Ratio IC50 for C[N+](C)(C)Cc1cn(Cc2ccccc2)c2ccccc12 : 1.9

---

Organism: Homo sapiens
Assay: Selectivity ratio of IC50 for human alpha4beta2 nAChR to IC50 for human alpha7 nAChR
Measured parameter: Ratio IC50
// no unit, no text: just the number

// recorded Ratio IC50 for COc1cc(Cn2cc(C[N+](C)(C)C)c3ccccc32)ccc1O : 4.1

***
// recorded Ratio IC50 for C[N+](C)(C)Cc1cn(Cc2ccc(O)cc2)c2ccccc12 : 11.3

// recorded Ratio IC50 for COc1ccc(Cn2cc(C[N+](C)(C)C)c3ccccc32)cc1O : 2.8

// recorded Ratio IC50 for COc1ccc(Cn2cc(C[N+](C)(C)C)c3ccccc32)cc1OC : 6.7

// recorded Ratio IC50 for C[N+](C)(C)Cc1cn(Cc2cccc(O)c2)c2ccccc12 : 14.7

// recorded Ratio IC50 for COc1ccc(Cn2cc(C[N+](C)(C)C)c3ccccc32)cc1 : 2.2
